System: P-glycoprotein (MDR1)
Assay Name: MDCK-MDR permeability and efflux
Type: in vitro ADME, Canine
Particulars: dog, MDCK-MDR1; A→B
Recorded Endpoint: Papp A→B (×10⁻⁶ cm/s)
Number in ×10⁻⁶ cm/s, nothing else.

Data request: Which Papp A→B value is on record for COc1cc2c(-n3ccnc3)ccnc2cc1Cl [Compound 14] ?
Data returned: 76.7

---

Study Target: full-length human cGAS (Homo sapiens, UniProt Q8N884)
Construct: The cGAS assay was used to screen 100,000 compounds with full-length human cGAS; 6xHis; made in house
Sequence (Q8N884 whole entry): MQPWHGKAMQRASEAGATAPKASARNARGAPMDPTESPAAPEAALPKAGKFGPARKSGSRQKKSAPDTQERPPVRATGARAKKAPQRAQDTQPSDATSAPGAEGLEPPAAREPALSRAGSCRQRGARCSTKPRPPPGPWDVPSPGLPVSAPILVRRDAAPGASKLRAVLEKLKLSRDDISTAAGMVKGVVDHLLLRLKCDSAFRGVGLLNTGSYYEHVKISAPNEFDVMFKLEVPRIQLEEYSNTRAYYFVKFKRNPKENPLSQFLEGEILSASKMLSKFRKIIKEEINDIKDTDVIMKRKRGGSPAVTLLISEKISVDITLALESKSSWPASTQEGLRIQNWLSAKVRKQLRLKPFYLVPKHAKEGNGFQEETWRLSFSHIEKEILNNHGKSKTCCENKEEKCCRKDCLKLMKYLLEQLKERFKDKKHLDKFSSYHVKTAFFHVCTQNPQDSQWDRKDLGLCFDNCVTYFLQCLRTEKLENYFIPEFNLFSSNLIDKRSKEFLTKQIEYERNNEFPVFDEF
Assay Name: cGAS enzymatic assay (FP readout), inhibition of cGAS
Format: biochemical
Particulars: 5 mM Mg2+, no Mn2+; read-out: IC50 (5 mM Mg^2+)
Protocol: Some exemplary compounds of the disclosure were tested for inhibition of cGAS (30 nM). […] A homogenous cGAS enzymatic assay was developed with fluorescence polarization (FP) and time-resolved Forster resonance energy transfer (TR-FRET) readouts (FIG. 2A-D). […]
Recorded Endpoint: IC50 (nM)
Output spec: scalar in nM, unitless text.

Clc1ccc2c(-n3ccnc3)ccnc2c1 [Compound 1, 7-chloro-4-(1H-imidazol-1-yl)quinolone]: 5400

Data request: Any idea what IC50 was measured for COc1cc2c(-n3ccnc3)ccnc2cc1Cl [Compound 14] ?
Data returned: 550
